# key: entry, value: IC50
system: OCI-LY10; experiment: CTG Cell Viability Assay - OCI-LY10; type: cell-based, human; conditions: Homo sapiens, OCI-Ly10, 96 h, OCI-LY10, 4 days; read-out: CTG Cell Viability Assay - OCI-LY10: Average external-IC50

{"molecule": "Cn1c(=O)n(C2CCC(=O)NC2=O)c2cccc(CCCOCCNC[C@H]3CC[C@H](n4cc(NC(=O)c5coc(-c6ccnc(NCC(F)(F)F)c6)n5)c(C(N)=O)n4)CC3)c21 (some centres unmarked) [I-11]", "IC50": "> 1000 nM"}
{"molecule": "Cn1c(=O)n(C2CCC(=O)NC2=O)c2cccc(CCCOCC3CN(C[C@H]4CC[C@H](n5cc(NC(=O)c6coc(-c7ccnc(NCC8CC8)c7)n6)c(C(F)F)n5)CC4)C3)c21 (some centres unmarked) [I-65]", "IC50": "< 50 nM"}
{"molecule": "O=C1CCC(n2c3ccccc3c3c(CCCOC4CCN(CC5CCC(n6cc(NC(=O)c7coc(-c8ccnc(NCC9CC9)c8)n7)c(C(F)F)n6)CC5)CC4)ccnc32)C(=O)N1 (centres unmarked) [I-123]", "IC50": "500 to 1000 nM"}
{"molecule": "Cn1c(=O)n(C2CCC(=O)NC2=O)c2cccc(CCCOC3CCN(C(=O)[C@H]4CC[C@H](n5cc(NC(=O)c6cnn7ccc(N8CCOCC8)nc67)c(C(F)F)n5)CC4)CC3)c21 (some centres unmarked) [I-149]", "IC50": "> 1000 nM"}
{"molecule": "Cn1c(=O)n(C2CCC(=O)NC2=O)c2ccc(CCCOCCOCC(F)CNC(=O)c3cnc(Nc4ccc5cnccc5n4)cc3NC3CC3)cc21 (centres unmarked) [I-138]", "IC50": "> 1000 nM"}
